B1: Cold shock protein CspB, residues 1 to 66; numbered along this chain, P41016 (parent)
chain: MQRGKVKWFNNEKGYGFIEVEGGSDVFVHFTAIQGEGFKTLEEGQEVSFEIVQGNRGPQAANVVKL

variants of: B1; test: abundance fitness (aPCA) (normalised: wild type 0, dead -1); higher = more abundant; growth selection in yeast, the domain comes from the species named; details: Bacillus caldolyticus
Form field: abundance fitness (one value per entry).
Attribute Measured: abundance fitness

In [3]: df
Out[3]:
    mutant_designation  observed
 0                E19Y    -0.075
 1                G37A    -0.082
 2                G14V    -0.778
 3                G23C     0.029
 4                F17Q    -0.161
 5                G37P    -0.119
 6                 V6I    -0.017
 7                N11D     0.028
 8                Y15D    -0.332
 9                 K7C    -0.003
10                 G4A    -0.117
